Listed below: inhibition values for each entry.
Experiment: inhibitors of the yeast RAM network, pilot screen, dse1pr::URA3 reporter, 5-FOA selection (AID 869);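 note: 0% = DMSO wells with no growth and 100% = 10 µM 1-NA-PP1 with full growth; RAM network block rescues cells from 5-FOA so hits raise OD615 growth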
Conditions: S. cerevisiae dse1pr::URA3 5-FOA growth, OD615, 2 d; at 10 µM; hits give high values; strain carries analog-sensitive mutant Cbk1 kinase
Lab book: enter the figure in %, no units written.

Worked set:
C=CCOC(=O)CCCC(=O)NC1CCCCC1 :: 1.58
CSc1nc(C)nc2c1c(=O)n(C)c(=O)n2C :: 0.68
COC(=O)C(Cc1ccccc1)NC(=O)CSc1nc(C)cc(=O)[nH]1 (stereo not drawn) :: 1.4

Query block: Please supply the value of reported inhibition for the item `Cc1[nH]c2ccc(-c3n[nH]c(=S)n3C)cc2c1C`
Result block: 1.31

Query block: Give the reported value of inhibition for this record: `O=C(Nc1cccc(F)c1)Nc1ccccn1`
Result block: 0.385

Query block: Please list inhibition recorded for the compound `CCN1C(=S)SC(=O)C1=C1C=C(C)OC(C)=C1`
Result block: 2.55

Query block: Note down inhibition recorded for `COc1ccc(OC)c(NC(=O)Nc2nnc(N3CCC(C)CC3)s2)c1`
Result block: 1.01

Query block: Please give the documented inhibition of `O=C(NCCc1ccc(S(=O)(=O)N2CCCC2)cc1)c1cccs1`
Result block: 0.545

Query block: Report measured inhibition; entry is `CC(=O)c1cccc(NC(=O)c2cc(C(C)C)on2)c1`
Result block: 0.785

Query block: Given the compound O=C(COC(=O)C1CCCO1)Nc1cccc(C(F)(F)F)c1 (stereo not drawn) , write its reported inhibition.
Result block: 1.63

Query block: Complete the entry with inhibition for CC1CC(C)CN(C(=O)CSc2nnc(-c3ccc(Cl)s3)o2)C1 (stereo not drawn)
Result block: 0.75

Query block: Give inhibition for CCOc1ccc(C2CC(c3ccc(F)cc3)Nc3nc(N)nn32)cc1 (stereo not drawn)
Result block: 0.7

Query block: Please look at this compound and report its inhibition: `CC(C)CN(CC(C)C)c1nnc(N)s1`
Result block: 0.56

Query block: Let me know recorded inhibition for `O=C(c1cc(C2CC2)on1)N1CCOCC1` , thanks.
Result block: 1.57

Query block: Consider the compound `CS(=O)(=O)NCCSCc1ccc(Cl)cc1` . State its measured inhibition.
Result block: 1.62
